Target: Heat shock factor protein 1 (Mus musculus)
Sequence (P38532 whole entry): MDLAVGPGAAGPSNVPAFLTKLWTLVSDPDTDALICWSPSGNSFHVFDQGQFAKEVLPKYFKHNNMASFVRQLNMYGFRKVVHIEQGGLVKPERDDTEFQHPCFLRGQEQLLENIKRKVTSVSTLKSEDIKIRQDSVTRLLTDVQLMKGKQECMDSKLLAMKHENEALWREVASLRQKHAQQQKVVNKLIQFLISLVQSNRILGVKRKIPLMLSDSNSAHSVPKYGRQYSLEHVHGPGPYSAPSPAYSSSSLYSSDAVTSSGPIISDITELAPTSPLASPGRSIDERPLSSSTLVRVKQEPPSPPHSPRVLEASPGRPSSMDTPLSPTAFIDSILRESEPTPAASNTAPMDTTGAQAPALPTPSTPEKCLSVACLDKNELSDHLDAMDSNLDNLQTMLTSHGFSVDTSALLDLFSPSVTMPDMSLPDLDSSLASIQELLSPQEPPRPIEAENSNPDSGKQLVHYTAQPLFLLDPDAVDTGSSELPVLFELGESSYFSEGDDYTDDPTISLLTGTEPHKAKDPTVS
Assay: enhancement of HSF1-driven luciferase signal – cell-based, NIH3T3, luminescence, dose retest, confirmation (AID 435004);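 further: stress induced by proteasome inhibitor MG132 added 30 min after compound; luciferase reporter driven by HSF1 response element in NIH3T3 cells; actives raise luminescence as potentiators of the MG132 stress response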
Type: functional
Calls of active or inactive are those of the source.
Hi! Could you answer with just one of these? 1.0 = active, 0.0 = inactive

>>> class_label("CC(=O)Nc1cccc(-n2nnc(SCC(=O)Nc3ccc(F)c(Cl)c3)n2)c1")
0.0

What outcome does the record of this test show for Cc1c(N(C)S(=O)(=O)c2cccc(C(=O)NC(C)C)c2)c(=O)n(-c2ccccc2)n1C ?
0.0

What outcome does the record of this test show for O=C(CCc1nnc(CCCCc2ccccc2)o1)NCCN1CCCCC1=O ?
0.0

What outcome does the record of this test show for O=C(NNc1c(Cl)cccc1Cl)C1CCC1 ?
0.0

What outcome does the record of this test show for CCC(C)n1cnc2c(c1=O)c1nc3ccccc3nc1n2Cc1ccc(OC)cc1 (stereo not drawn) ?
0.0

What outcome does the record of this test show for COc1ccc(CCN=C(NS(=O)(=O)c2ccccc2)c2ccccc2)cc1OC ?
0.0

What outcome does the record of this test show for N#CC(C#N)=C1C=CC=CN1/C(=C\c1ccccc1)C(=O)c1cccs1 ?
1.0

What outcome does the record of this test show for COc1cccc(NC(=O)CSc2nc(N)cc(N)n2)c1 ?
0.0

What outcome does the record of this test show for CCc1cccc(CC)c1NC(=O)COC(=O)CC1c2ccccc2CCN1S(=O)(=O)c1ccc(F)cc1 (stereo not drawn) ?
0.0

What outcome does the record of this test show for CCC(Sc1nc2cc3c(cc2c(=O)n1Cc1ccco1)OCO3)C(=O)NCCOC (stereo not drawn) ?
0.0

What outcome does the record of this test show for CC(C)(C)c1cc(NC(=O)CCSc2nnc3ccccn23)cc(C(C)(C)C)c1 ?
0.0

What outcome does the record of this test show for CCN(CC)C(=O)c1ccc(C)c(Br)c1 ?
0.0

What outcome does the record of this test show for O=C(CSc1nccn(-c2ccc(F)c(F)c2)c1=O)NC1CCCC1 ?
0.0

---

Measured AC50 (UniProtKB P08684)
Sequence (P08684 whole entry): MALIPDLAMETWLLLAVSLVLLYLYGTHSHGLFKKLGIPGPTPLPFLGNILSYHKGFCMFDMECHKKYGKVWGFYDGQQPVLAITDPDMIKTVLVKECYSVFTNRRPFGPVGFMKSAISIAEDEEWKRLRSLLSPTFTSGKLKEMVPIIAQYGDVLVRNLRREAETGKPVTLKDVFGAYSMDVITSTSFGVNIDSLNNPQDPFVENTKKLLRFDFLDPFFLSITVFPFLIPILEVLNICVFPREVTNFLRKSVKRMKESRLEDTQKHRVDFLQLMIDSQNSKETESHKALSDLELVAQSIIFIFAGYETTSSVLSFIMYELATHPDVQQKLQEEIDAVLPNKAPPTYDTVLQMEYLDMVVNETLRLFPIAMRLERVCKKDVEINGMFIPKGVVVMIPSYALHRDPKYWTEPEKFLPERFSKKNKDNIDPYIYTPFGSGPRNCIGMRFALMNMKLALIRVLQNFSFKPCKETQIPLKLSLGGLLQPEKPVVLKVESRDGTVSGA

What measured AC50 goes with Cc1c(C(=O)NCCC2=CCCCC2)cccc1[N+](=O)[O-] ?
14.1 µM (inconclusive)

What measured AC50 goes with COc1ccc(CCN2C(=O)C(O)=C(C(=O)c3ccco3)C2c2cccs2)cc1OC (stereo unspecified) ?
25.1 µM (inconclusive)

What measured AC50 goes with N#Cc1ccc(CN2CC3(CCN(C(=O)c4ccncc4)CC3)C2)cc1 ?
12.6 µM (inconclusive)

What measured AC50 goes with CO[C@@H]1CC=C2CCN3CCC4=C(CC(=O)OC4)[C@]23C1 ?
39.8 µM (inconclusive)

What measured AC50 goes with COc1ccc(NC(=O)N2CCC3(CC2)CCN(C(=O)c2ccncc2)CC3)cc1 ?
15.8 µM (inconclusive)

What measured AC50 goes with CCOc1ccc(N2C(=O)C3C4C=CC(CC4)C3C2=O)c([N+](=O)[O-])c1 (stereo unspecified) ?
20 µM (inconclusive)

What measured AC50 goes with Cc1cc(C)n(CC(O)COc2ccccc2)n1 (stereo unspecified) ?
15.8 µM (inconclusive)

What measured AC50 goes with CCCNC(=O)Cn1cnc2sc(C(=O)Nc3ccc4c(c3)OCO4)c(C)c2c1=O ?
1.41 µM (inconclusive)

What measured AC50 goes with C/C(=N\NC(=O)c1cccc(Br)c1)c1ccc(Br)cc1 ?
28.2 µM (inconclusive)

What measured AC50 goes with Cc1nn(CC(=O)NCc2ccccc2)c(C)c1[N+](=O)[O-] ?
22.4 µM (inconclusive)

What measured AC50 goes with COc1ccc(C(F)(F)F)cc1N/C=C\c1nnnn1-c1ccccc1 ?
31.6 µM (inconclusive)

---

AC50 listing for selected compounds.
System: INS1
Assay: INS-1E survival protection against cytokine death – cell-based, luminescence, retest, dose response (AID 449756);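 further: cell death triggered by IL-1 beta plus TNF-alpha plus IFN-gamma mixture; protective hits raise ATP signal compared with cytokine alone wells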
Type: functional
Conditions: Rattus norvegicus
Active and inactive are the calls of the source.

Worked cases, AC50 given:
>>> result("Cc1ccc(S(=O)(=O)Nc2ccccc2C(=O)Nc2nc(-c3ccc(F)cc3)cs2)cc1")
"2.97 µM (active)"
>>> result("Cc1ccc2c(c1)nnn2C1CCN(S(=O)(=O)c2ccc(C(=O)N3C(C)CCCC3C)cc2)CC1 (stereo not given)")
"4.53 µM (active)"
>>> result("CC(C)c1ccc(COc2ccc(C(=O)N3CCOCC3)cc2)cc1")
"9.42 µM (active)"
>>> result("O=C(CNC(=O)c1ccc2c(c1)OCO2)N/N=C/c1cc(Br)ccc1O")
"3.36 µM (active)"

Below: the item to evaluate.
What measured AC50 goes with N=c1c2ccccc2nc2n1CCCCCCCCCCC2 ?
9.52 µM (active)

---

IC50 listing for selected molecules.
Target: Cysteine protease ATG4B (Homo sapiens);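 further: Fluorescence-based dose-response confirmation assay measuring inhibition of ATG4B activity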
Sequence (Q9Y4P1 whole entry): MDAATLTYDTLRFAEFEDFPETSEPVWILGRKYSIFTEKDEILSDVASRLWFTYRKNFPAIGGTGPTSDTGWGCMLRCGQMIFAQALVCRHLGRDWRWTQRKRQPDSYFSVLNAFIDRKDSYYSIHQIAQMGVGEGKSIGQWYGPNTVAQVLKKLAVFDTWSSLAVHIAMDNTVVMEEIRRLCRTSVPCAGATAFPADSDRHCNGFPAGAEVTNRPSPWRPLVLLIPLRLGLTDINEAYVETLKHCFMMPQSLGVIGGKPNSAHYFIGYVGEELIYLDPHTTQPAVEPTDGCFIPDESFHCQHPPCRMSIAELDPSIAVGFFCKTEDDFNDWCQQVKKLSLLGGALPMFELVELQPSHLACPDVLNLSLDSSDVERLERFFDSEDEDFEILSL
Type: functional
The source made the active and inactive calls.

>>> result("CN1C(=O)C(N=Nc2ccccc2C(=O)O)N(C)C1=S (stereo unspecified)")
"16.1 µM (active)"
>>> result("COc1cc(OC)cc(-c2nc3ccccc3c(=O)n2OC(=O)c2ccc(C)c(C)c2)c1")
"4.38 µM (active)"
>>> result("CCNc1nc(CSc2ccccc2)nc2sc(C)c(C)c12")
"10.3 µM (active)"
>>> result("Cc1cccc(-n2c(-c3cccs3)nc3ccccc3c2=O)c1")
"10 µM (active)"
>>> result("CC(C)c1ccc2nc3sc(C(=O)N4CCc5ccccc5C4)c(N)c3cc2c1")
"7.08 µM (active)"

Below: the item to evaluate.
What measured IC50 goes with COc1ccc2nc(N3CCCCC3)c(/C=C3\SC(=S)NC3=O)cc2c1 ?
4.24 µM (active)

---

Assay: DRD fibroblast viability loss – cell-based, non-viral oncogenic, luminescence, dose response (AID 1934)
Format: functional
Details: Homo sapiens
Active and inactive are the calls of the source.
EXPERIMENTAL ENDPOINT: EC50

Worked cases, EC50 given:
>>> result("CCSc1nc2ccccc2n1C(=O)/C=C\\c1ccc(OC)c(OC)c1")
"4.6 µM (inconclusive)"
>>> result("CCOC(=O)c1sc(NC(=O)c2ccccc2OC)nc1C")
"14.7 µM (active)"
>>> result("Nc1nc(CCl)nc(Nc2ccc3ccccc3c2)n1")
"0.289 µM (active)"

Below: the item to evaluate.
What measured EC50 goes with CCOC(=O)Nc1nc(-c2ccccc2)c(C(=O)c2ccccc2)s1 ?
12.3 µM (inconclusive)

---

Target: UniProtKB P04054
Sequence (P04054 whole entry): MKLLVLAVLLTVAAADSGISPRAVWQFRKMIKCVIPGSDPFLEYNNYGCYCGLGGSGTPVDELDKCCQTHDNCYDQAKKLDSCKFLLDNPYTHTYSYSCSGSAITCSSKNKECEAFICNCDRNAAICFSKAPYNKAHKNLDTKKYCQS
Assay type: functional
The source made the active and inactive calls.
EXPERIMENTAL ENDPOINT: IC50

>>> result("CN1C(=O)C(N=Nc2ccccc2C(=O)O)N(C)C1=S (stereo unspecified)")
"10.3 µM (active)"
>>> result("Cc1cccc(-n2c(-c3cccs3)nc3ccccc3c2=O)c1")
"7.49 µM (active)"
>>> result("COc1cc(OC)cc(-c2nc3ccccc3c(=O)n2OC(=O)c2ccc(C)c(C)c2)c1")
"5.9 µM (active)"
>>> result("CC(C)c1ccc2nc3sc(C(=O)N4CCc5ccccc5C4)c(N)c3cc2c1")
"4.83 µM (active)"
>>> result("COc1ccc2nc(N3CCCCC3)c(/C=C3\\SC(=S)NC3=O)cc2c1")
"2.47 µM (active)"

Below: the item to evaluate.
What measured IC50 goes with CCNc1nc(CSc2ccccc2)nc2sc(C)c(C)c12 ?
8.4 µM (active)

---

Target: Sentrin-specific protease 8 (Homo sapiens);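 further: kinetic enzyme assay of SENP8 cleaving a Nedd8 protein substrate, dose-response confirmation of screening hits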
Sequence (Q96LD8 whole entry): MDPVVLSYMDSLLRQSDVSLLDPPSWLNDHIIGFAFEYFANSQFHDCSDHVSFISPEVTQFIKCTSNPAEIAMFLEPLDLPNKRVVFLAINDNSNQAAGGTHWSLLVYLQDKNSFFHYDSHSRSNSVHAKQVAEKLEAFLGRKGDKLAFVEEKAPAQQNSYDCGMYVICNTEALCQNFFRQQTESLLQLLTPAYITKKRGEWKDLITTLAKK
Type: functional
Activity calls are given as the source filed them.
IC50 listing for selected compounds.

Worked cases, IC50 given:
>>> result("CC(C)(C)OC(=O)N1Cc2ccccc2C[C@H]1C(=O)O")
"12.8 µM (active)"
>>> result("COc1ccc(NC(=O)NNc2cc(N3CCOCC3)nc(N3CCOCC3)n2)cc1")
"9.34 µM (active)"
>>> result("COC/C=C/C1=CC2=CC(=O)C(C)(OC(=O)c3cnc4ccccc4n3)C(=O)C2=CN1CCOC (stereo unspecified)")
"11.5 µM (active)"

What measured IC50 goes with Cc1ccc(N2C(=O)[C@@H]3[C@H](C2=O)C2c4ccccc4C=CN2[C@@H]3C(=O)c2ccco2)cc1 (stereo partly specified) ?
0.785 µM (active)

What measured IC50 goes with COc1cc(=O)n(C)c2c(O)cccc12 ?
11.5 µM (active)

What measured IC50 goes with COc1ccc(N2C(=O)Cc3ccccc3C2=O)cc1 ?
5.08 µM (active)
